Tested on: ATP;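 further: ATP exposure 15 min at 22 °C before imaging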
PROTOCOL_SUMMARY: switch fluorescence ratio, 500 uM ATP over buffer (Cy3 cluster intensity, sum of 5 cycles each) (fold (ratio)); higher = stronger signal-on switching upon ATP binding; sequences stand for … in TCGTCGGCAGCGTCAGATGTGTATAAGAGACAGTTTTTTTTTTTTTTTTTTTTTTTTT…TC
RUN_PARAMETERS: aptamer strand: ATP DNA aptamer (quencher-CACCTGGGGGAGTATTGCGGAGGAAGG + anchor), 100 nM annealed; ATP concentration: 500 uM
PROPERTY_MEASURED: switch fluorescence ratio

[[record]]
input_sequence = "GCTGTGTTTT"
property_measured = "switch fluorescence ratio"
observed_value = 1

[[record]]
input_sequence = "TTCGCAGGAT"
property_measured = "switch fluorescence ratio"
observed_value = 1.1

[[record]]
input_sequence = "TATGGAGTGG"
property_measured = "switch fluorescence ratio"
observed_value = 1

[[record]]
input_sequence = "GGTGTGGCGA"
property_measured = "switch fluorescence ratio"
observed_value = 1.03

[[record]]
input_sequence = "AAGCGTCTGG"
property_measured = "switch fluorescence ratio"
observed_value = 1.02

[[record]]
input_sequence = "TAAAAATGCG"
property_measured = "switch fluorescence ratio"
observed_value = 0.951

[[record]]
input_sequence = "TTCCGGCGCT"
property_measured = "switch fluorescence ratio"
observed_value = 3.42

[[record]]
input_sequence = "CGCGACTTTC"
property_measured = "switch fluorescence ratio"
observed_value = 1.09

[[record]]
input_sequence = "TGAAGAACGC"
property_measured = "switch fluorescence ratio"
observed_value = 1.07

[[record]]
input_sequence = "AAAACTTTTA"
property_measured = "switch fluorescence ratio"
observed_value = 1.02

[[record]]
input_sequence = "GGACTTGTGA"
property_measured = "switch fluorescence ratio"
observed_value = 0.997

[[record]]
input_sequence = "CTGCGTCGTT"
property_measured = "switch fluorescence ratio"
observed_value = 0.997

[[record]]
input_sequence = "ACGCTTTACC"
property_measured = "switch fluorescence ratio"
observed_value = 1.89

[[record]]
input_sequence = "GAGGGGGAAG"
property_measured = "switch fluorescence ratio"
observed_value = 1

[[record]]
input_sequence = "GGGGACGTCA"
property_measured = "switch fluorescence ratio"
observed_value = 0.998

[[record]]
input_sequence = "TCGAGGTATA"
property_measured = "switch fluorescence ratio"
observed_value = 2.94

[[record]]
input_sequence = "GTGTGCTAGT"
property_measured = "switch fluorescence ratio"
observed_value = 0.975

[[record]]
input_sequence = "ATGCTGTTGG"
property_measured = "switch fluorescence ratio"
observed_value = 1

[[record]]
input_sequence = "CATGTGTTGT"
property_measured = "switch fluorescence ratio"
observed_value = 0.987

[[record]]
input_sequence = "CTTACGTTAT"
property_measured = "switch fluorescence ratio"
observed_value = 1.13

[[record]]
input_sequence = "GGTGCTATCT"
property_measured = "switch fluorescence ratio"
observed_value = 0.992

[[record]]
input_sequence = "CATGTTCGGG"
property_measured = "switch fluorescence ratio"
observed_value = 0.971

[[record]]
input_sequence = "GCATGTCGGA"
property_measured = "switch fluorescence ratio"
observed_value = 1.01

[[record]]
input_sequence = "CGGTTGGGTG"
property_measured = "switch fluorescence ratio"
observed_value = 0.973

[[record]]
input_sequence = "CTTCGGTGTG"
property_measured = "switch fluorescence ratio"
observed_value = 1.04

[[record]]
input_sequence = "GAAGGCCCTG"
property_measured = "switch fluorescence ratio"
observed_value = 1.01

[[record]]
input_sequence = "GAAAGTGTTG"
property_measured = "switch fluorescence ratio"
observed_value = 0.972

[[record]]
input_sequence = "AAATTGGACG"
property_measured = "switch fluorescence ratio"
observed_value = 1.08

[[record]]
input_sequence = "CGTGGGGGT"
property_measured = "switch fluorescence ratio"
observed_value = 0.996

[[record]]
input_sequence = "GGTAACAGCT"
property_measured = "switch fluorescence ratio"
observed_value = 1.04

[[record]]
input_sequence = "GGAATTGCA"
property_measured = "switch fluorescence ratio"
observed_value = 0.958

[[record]]
input_sequence = "TTTTCGAAAA"
property_measured = "switch fluorescence ratio"
observed_value = 1.03

[[record]]
input_sequence = "ATAGACTGAG"
property_measured = "switch fluorescence ratio"
observed_value = 0.983

[[record]]
input_sequence = "TACCGGGCAC"
property_measured = "switch fluorescence ratio"
observed_value = 1.11

[[record]]
input_sequence = "GTGTCATTTA"
property_measured = "switch fluorescence ratio"
observed_value = 0.99

[[record]]
input_sequence = "TTGGGTTGTT"
property_measured = "switch fluorescence ratio"
observed_value = 0.986

[[record]]
input_sequence = "TTACGGTTTT"
property_measured = "switch fluorescence ratio"
observed_value = 1.01

[[record]]
input_sequence = "AAATGCTCGG"
property_measured = "switch fluorescence ratio"
observed_value = 0.993

[[record]]
input_sequence = "ATATAATTTT"
property_measured = "switch fluorescence ratio"
observed_value = 0.979

[[record]]
input_sequence = "ACTCGACAGG"
property_measured = "switch fluorescence ratio"
observed_value = 1.8

[[record]]
input_sequence = "AAAGCCACGC"
property_measured = "switch fluorescence ratio"
observed_value = 1.11

[[record]]
input_sequence = "CAGGTGGTGG"
property_measured = "switch fluorescence ratio"
observed_value = 1.02

[[record]]
input_sequence = "TCGCGCTATT"
property_measured = "switch fluorescence ratio"
observed_value = 1.34

